Below, each entry is listed alongside its reported Enzyme Activity Endpoint Assay: scIgG.
Biological target: pooled human IgG (human IgG1, 2, 3 and 4)
reported.endpoint: Enzyme Activity Endpoint Assay: scIgG

[
  {
    "protein": "PRT-474 (protein) MVTSVWTKGVTPPTDFRKIVDGNIAYYHAPYKAGQGWYDITKAFDGGDDLLCGAATAGNMLHWWFDQNKEQIENYLKKHPEKQKINFNGEQMFDVKEAIDTKDSQTNSELFNYFKEKAFPYLSTKHLGVFPDHVIDMFINGYRLSLTNHGPTPVKRGSKDPRGGIFDAVFTRGDQSKLLTNRHDLKNKTLKEISDLIKQELTEGKALGISHTYANVRINHVINLWGADFDAEGNLEAIYVTDSDSNASIGMKKYFVGVNSNGKVAISAKEIEEDNIGAQVLGLFTLSTGQDIWNQTNLEHHHHHH",
    "reported.endpoint": "Enzyme Activity Endpoint Assay: scIgG",
    "result": "229 ng/µL"
  },
  {
    "protein": "PRT-392 (protein) MVTSVWTKGVTPPTNFTYGEDVLHAPYVANQGWYDITKTFNGKDDLLCGAATAGNMLHWWFDQNKEQIENYLKKHPEKQKINFNGEQMFDVKEAIDTKDSQLDSKLFEYFKEKAFPYLSTKHLGVFPDHVIDMFINGYRLSLTNHGPTPVKRGSKDPRGGIFDAVFTRGVQSKLLTNRHDFKEKTLKEISDLIKQELTEGKALGISHTYANVRINHVINLWGADFDAEGNLEAIYVTDSDSNASIGMKKYFVGVNSNGKVAISAKEIEEDNIGAQVLGLFTLSTGQDIWNQTN",
    "reported.endpoint": "Enzyme Activity Endpoint Assay: scIgG",
    "result": "196 ng/µL"
  }
]
